experimentSummary: Oral bioavailability in rat
Assay type: ADME, organism-based
conditionsUsed: in vivo
measuredEndpoint: bioavailability (%)
One number for each entry, in %.

**Q:** Reported bioavailability for O=C(O)COc1cccc2c1CC[C@@H](Cn1ncc(-c3cccc(F)c3F)c(-c3ccc(F)cc3)c1=O)C2 (racemic) : what is it?
**A:** 76

----------
Kindly supply the reported EC50 values for the records listed here.
targetOrSystem: Prostaglandin D2 receptor (Homo sapiens, UniProt Q13258)
Sequence (Q13258 whole entry): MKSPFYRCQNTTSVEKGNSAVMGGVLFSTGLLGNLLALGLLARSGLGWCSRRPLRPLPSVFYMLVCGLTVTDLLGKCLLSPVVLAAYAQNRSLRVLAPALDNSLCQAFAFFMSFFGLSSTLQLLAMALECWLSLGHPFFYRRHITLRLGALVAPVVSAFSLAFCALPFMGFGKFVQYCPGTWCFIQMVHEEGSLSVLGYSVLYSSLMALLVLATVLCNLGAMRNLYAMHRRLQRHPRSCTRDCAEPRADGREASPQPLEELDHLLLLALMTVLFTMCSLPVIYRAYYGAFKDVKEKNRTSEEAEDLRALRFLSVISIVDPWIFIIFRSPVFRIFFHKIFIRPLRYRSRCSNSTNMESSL
experimentSummary: Agonist activity at human recombinant DP1 receptor expressed in melanophores assessed as induction of pigment redistribution incubated for 90 mins
Numbers only, in nM.

Worked examples follow.
molecule	targetOrSystem	readoutUnit	EC50
O=C(O)COc1cccc2c1CCC(Cn1ncc(-c3ccccc3F)c(-c3ccccc3)c1=O)C2 (racemic)	Prostaglandin D2 receptor (Homo sapiens, UniProt Q13258)	nM	31
COc1ccc(-c2nn(CC3CCc4c(cccc4OCC(=O)O)C3)c(=O)cc2-c2ccccc2)cc1 (racemic)	Prostaglandin D2 receptor (Homo sapiens, UniProt Q13258)	nM	1.7
COc1ccc(-c2nn(CC3CCc4c(cccc4OCC(=O)O)C3)c(=O)cc2-c2ccccc2)cc1F (racemic)	Prostaglandin D2 receptor (Homo sapiens, UniProt Q13258)	nM	3

Could you now consider this next molecule?
**Q:** Reported EC50 for O=C(O)COc1cccc2c1CCC(Cn1ncc(-c3ccccc3)c(-c3ccccc3)c1=O)C2 (racemic) : what is it?
**A:** 180

----------
targetOrSystem: Prostacyclin receptor (Rattus norvegicus, UniProt P43253)
Sequence (P43253 whole entry): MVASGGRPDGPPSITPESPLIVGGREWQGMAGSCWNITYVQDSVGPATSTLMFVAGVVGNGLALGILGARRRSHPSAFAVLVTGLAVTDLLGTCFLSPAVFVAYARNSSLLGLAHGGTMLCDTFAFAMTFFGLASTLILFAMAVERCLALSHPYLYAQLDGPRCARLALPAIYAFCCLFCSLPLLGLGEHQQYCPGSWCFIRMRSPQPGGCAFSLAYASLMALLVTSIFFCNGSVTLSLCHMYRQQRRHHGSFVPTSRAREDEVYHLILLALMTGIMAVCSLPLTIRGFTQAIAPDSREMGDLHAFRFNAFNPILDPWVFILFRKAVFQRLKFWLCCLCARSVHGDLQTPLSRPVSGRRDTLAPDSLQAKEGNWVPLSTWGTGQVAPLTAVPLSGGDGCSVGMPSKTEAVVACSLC
experimentSummary: Agonist activity at rat recombinant IP receptor expressed in CHO-K1 cells incubated for 1 hr by HTRF cAMP assay
Kindly supply the reported pEC50 values for the records listed here.
Give bare numbers, as −log10 of the molar value.

Provide each entry's pEC50 from the list below.
1. O=C(O)COc1cccc2c1CCC(Cn1ncc(-c3cccc(F)c3F)c(-c3ccc(F)cc3)c1=O)C2 (racemic)
2. O=C(O)COc1cccc2c1CCC(Cn1ncc(-c3ccccc3F)c(-c3ccccc3)c1=O)C2 (racemic)
3. Cc1ccc(-c2nn(CC3CCc4c(cccc4OCC(=O)O)C3)c(=O)cc2-c2ccccc2)cc1 (racemic)
4. Cc1cccc(-c2cc(=O)n(CC3CCc4c(cccc4OCC(=O)O)C3)nc2-c2ccccc2)c1 (racemic)
5. O=C(O)COc1cccc2c1CCC(Cn1nc(-c3ccccc3)c(-c3cccc(Cl)c3)cc1=O)C2 (racemic)

**A:**
1. 6.58
2. 6.38
3. 6.92
4. 6.43
5. 6.44

Provide each entry's pEC50 from the list below.
1. COc1cccc(-c2cnn(CC3CCc4c(cccc4OCC(=O)O)C3)c(=O)c2-c2ccccc2)c1F (racemic)
2. O=C(O)COc1cccc2c1CCC(Cn1ncc(-c3cccc(F)c3F)c(-c3ccccc3)c1=O)C2 (racemic)
3. O=C(O)COc1cccc2c1CC[C@@H](Cn1ncc(-c3cccc(F)c3F)c(-c3ccc(F)cc3)c1=O)C2 (racemic)

**A:**
1. 7.40
2. 6.96
3. 6.70

----------
targetOrSystem: Prostaglandin D2 receptor (Homo sapiens, UniProt Q13258)
experimentSummary: Agonist activity at human recombinant DP1 receptor expressed in melanophores assessed as induction of pigment redistribution incubated for 90 mins
measuredEndpoint: pEC50
One number for each entry, as −log10 of the molar value.

compound	pEC50
COc1cccc(-c2cc(=O)n(CC3CCc4c(cccc4OCC(=O)O)C3)nc2-c2ccc(C)cc2)c1 (racemic)	7.96
O=C(O)COc1cccc2c1CCC(Cn1nc(-c3ccccc3)c(-c3cccc(Cl)c3)cc1=O)C2 (racemic)	7.21
COc1cccc(-c2cc(=O)n(CC3CCc4c(cccc4OCC(=O)O)C3)nc2-c2ccc(F)cc2)c1 (racemic)	7.62
COc1cccc(-c2cnn(CC3CCc4c(cccc4OCC(=O)O)C3)c(=O)c2-c2ccccc2)c1F (racemic)	7.40
O=C(O)COc1cccc2c1CCC(Cn1nc(-c3ccccc3)c(-c3cccc(F)c3)cc1=O)C2 (racemic)	7.36

Provide each entry's pEC50 from the list below.
1. O=C(O)COc1cccc2c1CC[C@@H](Cn1ncc(-c3cccc(F)c3F)c(-c3ccc(F)cc3)c1=O)C2 (racemic)
2. COc1ccc(-c2nn(CC3CCc4c(cccc4OCC(=O)O)C3)c(=O)cc2-c2ccccc2)c(F)c1 (racemic)
3. COc1cccc(-c2cnn(CC3CCc4c(cccc4OCC(=O)O)C3)c(=O)c2-c2ccccc2)c1 (racemic)

**A:**
1. 7.32
2. 7.51
3. 7.32

----------
targetOrSystem: Prostacyclin receptor (Homo sapiens)
Sequence (P43119 whole entry): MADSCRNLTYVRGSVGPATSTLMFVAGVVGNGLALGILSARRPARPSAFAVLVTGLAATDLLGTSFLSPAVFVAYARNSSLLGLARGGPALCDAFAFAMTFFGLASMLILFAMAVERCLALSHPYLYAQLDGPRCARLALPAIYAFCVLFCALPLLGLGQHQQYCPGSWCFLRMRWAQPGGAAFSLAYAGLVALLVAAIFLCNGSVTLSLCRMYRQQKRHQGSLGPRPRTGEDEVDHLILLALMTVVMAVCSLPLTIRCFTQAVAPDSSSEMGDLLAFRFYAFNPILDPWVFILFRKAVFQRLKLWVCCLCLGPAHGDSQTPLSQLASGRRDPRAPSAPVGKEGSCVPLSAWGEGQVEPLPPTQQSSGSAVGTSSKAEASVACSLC
experimentSummary: Agonist activity at human recombinant IP receptor expressed in CHO-K1 cells incubated for 1 hr by HTRF cAMP assay
measuredEndpoint: EC50 (nM)
One number for each entry, in nM.

compound	EC50 (nM)
COc1cccc(-c2cnn(CC3CCc4c(cccc4OCC(=O)O)C3)c(=O)c2-c2ccccc2)c1F (racemic)	10
COc1cccc(-c2cc(=O)n(CC3CCc4c(cccc4OCC(=O)O)C3)nc2-c2ccc(C)cc2)c1 (racemic)	9.5
O=C(O)COc1cccc2c1CCC(Cn1nc(-c3ccc(F)cc3)c(-c3ccccc3)cc1=O)C2 (racemic)	114

Provide each entry's EC50 from the list below.
1. O=C(O)COc1cccc2c1CC[C@@H](Cn1ncc(-c3cccc(F)c3F)c(-c3ccc(F)cc3)c1=O)C2 (racemic)
2. COc1cccc(-c2nn(CC3CCc4c(cccc4OCC(=O)O)C3)c(=O)cc2-c2ccccc2)c1 (racemic)
3. Cc1ccc(-c2nn(CC3CCc4c(cccc4OCC(=O)O)C3)c(=O)cc2-c2ccccc2)cc1 (racemic)
4. O=C(O)COc1cccc2c1CCC(Cn1ncc(-c3cccc(F)c3F)c(-c3ccccc3)c1=O)C2 (racemic)
5. COc1cccc(-c2cnn(CC3CCc4c(cccc4OCC(=O)O)C3)c(=O)c2-c2ccccc2)c1 (racemic)
6. O=C(O)COc1cccc2c1CCC(Cn1ncc(-c3ccccc3)c(-c3cccc(F)c3)c1=O)C2 (racemic)
7. O=C(O)COc1cccc2c1CCC(Cn1ncc(-c3ccccc3F)c(-c3ccccc3)c1=O)C2 (racemic)

**A:**
1. 6
2. 1720
3. 24
4. 38
5. 140
6. 260
7. 120

Provide each entry's EC50 from the list below.
1. COc1cccc(-c2cc(=O)n(CC3CCc4c(cccc4OCC(=O)O)C3)nc2-c2ccccc2)c1 (racemic)
2. Cc1cccc(-c2cc(=O)n(CC3CCc4c(cccc4OCC(=O)O)C3)nc2-c2ccccc2)c1 (racemic)
3. O=C(O)COc1cccc2c1CCC(Cn1nc(-c3ccccc3)c(-c3cccc(Cl)c3)cc1=O)C2 (racemic)
4. COc1ccc(-c2cnn(CC3CCc4c(cccc4OCC(=O)O)C3)c(=O)c2-c2ccccc2)cc1 (racemic)
5. O=C(O)COc1cccc2c1CCC(Cn1ncc(-c3ccccc3)c(-c3ccccc3)c1=O)C2 (racemic)

**A:**
60
180
60
1060
100

----------
targetOrSystem: Prostaglandin D2 receptor (Homo sapiens, UniProt Q13258)
experimentSummary: Agonist activity at human recombinant DP1 receptor by melanophore assay
measuredEndpoint: EC50 (nM)
One number for each entry, in nM.

Provide each entry's EC50 from the list below.
1. O=C(O)COc1cccc2c1CCC(Cn1ncc(-c3cccc(F)c3F)c(-c3ccccc3)c1=O)C2 (racemic)
2. O=C(O)COc1cccc2c1CC[C@@H](Cn1ncc(-c3cccc(F)c3F)c(-c3ccc(F)cc3)c1=O)C2 (racemic)

**A:**
1. 400
2. 140

----------
targetOrSystem: UniProtKB P43119
experimentSummary: Intrinsic activity at human recombinant IP receptor expressed in CHO-K1 cells incubated for 1 hr by HTRF cAMP assay relative to 1 uM iloprost
Format: functional, cell-based
Kindly supply the reported Intrinsic activity values for the records listed here.
A complete answer gives the number followed by the unit.

Worked examples follow.
compound	Intrinsic activity
O=C(O)COc1cccc2c1CCC(Cn1ncc(-c3ccccc3F)c(-c3ccccc3)c1=O)C2 (racemic)	106%
COc1cccc(-c2nn(CC3CCc4c(cccc4OCC(=O)O)C3)c(=O)cc2-c2ccccc2)c1 (racemic)	87%
O=C(O)COc1cccc2c1CCC(Cn1ncc(-c3ccccc3)c(-c3ccccc3)c1=O)C2 (racemic)	75%
O=C(O)COc1cccc2c1CCC(Cn1nc(-c3ccccc3)c(-c3ccccc3)cc1=O)C2 (racemic)	60%
O=C(O)COc1cccc2c1CCC(Cn1ncc(-c3ccccc3)c(-c3ccc(F)cc3)c1=O)C2 (racemic)	80%

Provide each entry's Intrinsic activity from the list below.
1. COc1cccc(-c2cnn(CC3CCc4c(cccc4OCC(=O)O)C3)c(=O)c2-c2ccccc2)c1F (racemic)
2. O=C(O)COc1cccc2c1CCC(Cn1nc(-c3cccc(F)c3)c(-c3ccccc3)cc1=O)C2 (racemic)
3. O=C(O)COc1cccc2c1CCC(Cn1ncc(-c3cccc(F)c3F)c(-c3ccc(F)cc3)c1=O)C2 (racemic)
4. O=C(O)COc1cccc2c1CCC(Cn1ncc(-c3ccccc3)c(-c3cccc(F)c3)c1=O)C2 (racemic)

**A:**
["78%", "88%", "94%", "100%"]

Provide each entry's Intrinsic activity from the list below.
1. COc1cccc(-c2cc(=O)n(CC3CCc4c(cccc4OCC(=O)O)C3)nc2-c2ccc(C)cc2)c1 (racemic)
2. COc1ccc(-c2cc(=O)n(CC3CCc4c(cccc4OCC(=O)O)C3)nc2-c2ccccc2)cc1 (racemic)
3. COc1ccc(-c2cnn(CC3CCc4c(cccc4OCC(=O)O)C3)c(=O)c2-c2ccccc2)cc1 (racemic)
4. O=C(O)COc1cccc2c1CC[C@@H](Cn1ncc(-c3cccc(F)c3F)c(-c3ccc(F)cc3)c1=O)C2 (racemic)
5. COc1cccc(-c2cnn(CC3CCc4c(cccc4OCC(=O)O)C3)c(=O)c2-c2ccccc2)c1 (racemic)

**A:**
81%
47%
73%
98%
101%

Provide each entry's Intrinsic activity from the list below.
1. O=C(O)COc1cccc2c1CCC(Cn1nc(-c3ccc(F)cc3)c(-c3ccccc3)cc1=O)C2 (racemic)
2. COc1ccc(-c2nn(CC3CCc4c(cccc4OCC(=O)O)C3)c(=O)cc2-c2ccccc2)cc1F (racemic)

**A:**
1. 89%
2. 80%
